Experiment: Cytotoxicity against human OV3 cells by SRB assay
Format: functional, cell-based
assay-metric: IC50 (µM)
Answers are plain numbers, in µM.

Return reported IC50 values for all items listed beneath this line.
1. Cc1ccc2c(=O)n(C)c3c(c2c1)C(OCC(C)C)c1ccccc1-3 (configuration not stated)
2. COc1ccc(Cn2c3c(c4cc(C)ccc4c2=O)C(O)c2ccccc2-3)cc1 (configuration not stated)
3. CCOC1c2ccccc2-c2c1c1cc(C)ccc1c(=O)n2C (configuration not stated)

[38.4, 71, 70.9]

###

System: SK-MEL-2
Experiment: Cytotoxicity against human SK-MEL-2 cells by SRB assay
Format: functional, cell-based
assay-metric: pIC50
Give bare numbers, as −log10 of the molar value.

CCCCCOC1c2ccccc2-c2c1c1cc(C)ccc1c(=O)n2Cc1ccc(OC)cc1 (stereo unspecified) :: 4.95
CCCCOC1c2ccccc2-c2c1c1cc(C)ccc1c(=O)n2C (stereo unspecified) :: 4.68
CCOC1c2ccccc2-c2c1c1cc(C)ccc1c(=O)n2C (stereo unspecified) :: 4.39
Cn1c2c(c3ccccc3c1=O)C(=O)c1ccccc1-2 :: 4.04
COc1ccc(Cn2c3c(c4cc(C)ccc4c2=O)C(OC)c2ccccc2-3)cc1 (stereo unspecified) :: 4.82

Consider the following items and state reported pIC50 for each.
1. COc1ccc(Cn2c3c(c4cc(C)ccc4c2=O)Cc2ccccc2-3)cc1
2. Cc1ccc2c(=O)n(C)c3c(c2c1)Cc1ccccc1-3
3. Cn1c2c(c3ccccc3c1=O)Cc1ccccc1-2
4. CCCCCOC1c2ccccc2-c2c1c1cc(C)ccc1c(=O)n2C (stereo unspecified)
5. Cc1ccc2c(=O)n(C)c3c(c2c1)C(OCC(C)C)c1ccccc1-3 (stereo unspecified)
6. COC1c2ccccc2-c2c1c1cc(C)ccc1c(=O)n2C (stereo unspecified)

1. 4.50
2. 4.10
3. 3.89
4. 4.58
5. 4.98
6. 4.15
